EXPERIMENT: drug combination growth inhibition, ovarian cancer – cell-based, oncology-focused library, rucaparib conditional, profiling panel (AID 1508598)
EXPERIMENTAL PARAMETERS: patient-derived ovarian cancer cells, CellTiter-Glo viability, 144 h; at 0.00488 µM; OCI-C5x cells; without rucaparib; hits give low values
Items are presented alongside their recorded viability.
Numbers only; they are read as %.

Below, 5 compounds whose answers are already recorded.
Cc1ccc(-c2csc(NC(=O)c3ccccc3)n2)c(C)c1 : 125
O=C(NC1CCNCC1)c1[nH]ncc1NC(=O)c1c(Cl)cccc1Cl : 117
O=C(O)[C@H](Cc1c[nH]c2ccccc12)N1C(=O)c2ccccc2C1=O : 117
CCn1c(-c2nonc2N)nc2c(C#CC(C)(C)O)ncc(OC[C@H]3CCCNC3)c21 : 119
Cn1cnc(=N)c2[nH]cnc21 : 119

## Input Sample Nc1ccc(C(=O)Nc2cccc(-c3nc(N4CCOCC4)c4oc5ncccc5c4n3)c2)cn1 — what was its viability?
## Output 108

## Input Would you kindly repeat that for CC(C)CC(=O)Nc1n[nH]c2c1CN(C(=O)C1CCN(C)CC1)C2(C)C ?
## Output 128

## Input Proceed to CCOc1cc2ncc(C#N)c(Nc3ccc(F)c(Cl)c3)c2cc1NC(=O)/C=C/CN(C)C
## Output 126

## Input Proceed to COc1ccc(-c2ccc3c(N4CCOC[C@@H]4C)nc(N4CCOC[C@@H]4C)nc3n2)cc1CO
## Output 119

## Input Cc1ccc(S(=O)(=O)Nc2nc3ccccc3nc2Nc2ccc3nsnc3c2)cc1 ?
## Output 130

## Input Could you do the same for C[C@@H](Oc1cc(-c2cnn(C3CCNCC3)c2)cnc1N)c1c(Cl)ccc(F)c1Cl , please?
## Output 133

## Input Entry to check: O=C(Nc1cccnc1)N1CCC(Cc2cccc(Oc3ccc(C(F)(F)F)cn3)c2)CC1
## Output 120

## Input Next entry: O=C(/C=C/c1cccc(S(=O)(=O)Nc2ccccc2)c1)NO
## Output 117

## Input // same read-out, input: O=c1cc(N2CCOCC2)oc2c(-c3cccc4c3sc3ccccc34)cccc12
## Output 103

## Input Another: CCC(CC)CC1(C(=O)Nc2ccccc2SC(=O)C(C)C)CCCCC1
## Output 114

## Input Do the same for Oc1cccc(-c2nc(N3CCOCC3)c3oc4ncccc4c3n2)c1 please
## Output 93.3

## Input Ok, now Cc1cc2c(F)c(Oc3ncnn4cc(OC[C@@H](C)O)c(C)c34)ccc2[nH]1
## Output 126

## Input Please do the same for Cn1cnc2c(F)c(Nc3ccc(Br)cc3Cl)c(C(=O)NOCCO)cc21 as well.
## Output 93.7

## Input Another compound: CN(C)Cc1c(C(=O)NCCOc2ccc(C(=O)NO)cc2)oc2ccccc12
## Output 128

----------
EXPERIMENT: drug combination growth inhibition, ovarian cancer – cell-based, oncology-focused library, rucaparib conditional, profiling panel (AID 1508598)
EXPERIMENTAL PARAMETERS: patient-derived ovarian cancer cells, CellTiter-Glo viability, 144 h; at 0.00122 µM; OCI-C5x cells; without rucaparib
Active and inactive are the calls of the source.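 The calls were made as follows: active = normalized viability below 100% at a tested concentration; inactive = the rest.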
Output constraint: value belongs to true = active, false = inactive

Examples from the recorded data:
C=CC(=O)Nc1cc(Nc2nccc(-c3cn(C)c4ccccc34)n2)c(OC)cc1N(C)CCN(C)C : false
CC(C)OC(=O)C1=CN(C(=O)c2ccc(F)c(F)c2)CC(C)(C)c2c1[nH]c1ccccc21 : false
Cc1cn(-c2cc(NC(=O)c3ccc(C)c(Nc4nccc(-c5cccnc5)n4)c3)cc(C(F)(F)F)c2)cn1 : false

## Input Please share the test call associated with CC(C)C[C@H](NC(=O)CNC(=O)c1cc(Cl)ccc1Cl)B(O)O .
## Output false

## Input Similarly, CCC(CC)CC1(C(=O)Nc2ccccc2SC(=O)C(C)C)CCCCC1 ?
## Output false

## Input Repeat for the following compound: Cc1cnc(-c2ccccc2C(C)C)nc1NCc1ccc(-n2ccnn2)cc1
## Output false

## Input Note, next up: CS(=O)(=O)c1cccc(CNc2nc(Nc3ccc4c(c3)CCC(=O)N4)ncc2C(F)(F)F)c1
## Output false

## Input Queued: COc1cc2nccc(Oc3ccc(NC(=O)Nc4cc(C)on4)c(Cl)c3)c2cc1OC
## Output true

## Input Field entry: O=C(NCCCNc1nc(Nc2cccc(NC(=O)N3CCCC3)c2)ncc1I)c1cccs1
## Output false

## Input Queued: NC1(c2ccc(-c3nc4ccn5c(=O)[nH]nc5c4cc3-c3ccccc3)cc2)CCC1
## Output false

## Input // query: CC1COC2(CCN(c3nc(=O)c4cc(C(F)(F)F)cc([N+](=O)[O-])c4s3)CC2)O1 (centres undefined)
## Output false

## Input // repeat for Cc1ccc(F)c(NC(=O)Nc2ccc(-c3cccc4[nH]nc(N)c34)cc2)c1 and report
## Output false

## Input Check CN1CCN(CCOc2cc(OC3CCOCC3)c3c(Nc4c(Cl)ccc5c4OCO5)ncnc3c2)CC1 too.
## Output true

## Input And what about the compound COc1ccc(-c2ccc3c(N4CCOC[C@@H]4C)nc(N4CCOC[C@@H]4C)nc3n2)cc1CO ?
## Output false
